# Read-out: CD69, CD69 (gene 969)
# Assay notes: BSK_SAg_CD69: BioMAP Diversity Plus: SAg Assay for CD69 Biomarker Activity (AID 2283089)
# Measurement conditions: primary human HUVEC with PBMC; actives raise or lower the signal
The source made the active and inactive calls. How the source made its calls: active means hit-call score of the fitted dose curve at least 0.9, where 1 is the maximum; inactive means score below 0.9.
Form entry, call: pick from Yes = active, No = inactive

Use the examples below as a reference point.
Molecule: O=c1ssc(Cl)c1Cl
Class name: Yes
--
Molecule: COP(N)(=S)OC
Class name: No
--
Molecule: O=C(O)C(F)(F)OC(F)(F)C(F)(F)OC(F)(F)F
Class name: No
--
Molecule: O=S(=O)(F)C(F)(F)C(F)(F)C(F)(F)C(F)(F)C(F)(F)C(F)(F)C(F)(F)C(F)(F)F
Class name: No
--
Molecule: CCOP(=S)(OCC)SCSc1ccc(Cl)cc1
Class name: Yes
--
Molecule: N#Cc1cc([N+](=O)[O-])ccc1N
Class name: No

Assay result, entry O=P(OCC(Br)CBr)(OCC(Br)CBr)OCC(Br)CBr (configuration not stated) — outcome?
No

====

# Assay notes: BSK_SAg_PBMCCytotoxicity: PBMC Cytotoxicity Assessment in the BioMAP Diversity Plus: SAg Assay (AID 2283093);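 further: PBMC viability measured as Alamar Blue reduction fluorescence at 546/580 nm; fitted both ways against DMSO so a hit may be loss or gain of signal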
# Measurement conditions: primary human HUVEC with PBMC
# Procedure: BSK_SAg is a cell-based, multiplexed-readout assay that uses umbilical vein endothelium and peripheral blood mononuclear cells, a human vascular primary cell co-culture, with measurements taken at 24 hours after chemical dosing in a 96-well plate.BSK_SAg_PBMCCytotoxicity is an assay component measured in the BSK_SAg assay. It measures Alamar blue related to cell death using Alamar Blue Reduction technology.Data from the assay component BSK_SAg_PBMCCytotoxicity was analyzed into 1 assay endpoint. […]
Activity calls are given as the source filed them. The calls were made as follows: active = hit-call score of the fitted dose curve at least 0.9, where 1 is the maximum; inactive = score below 0.9.
Form entry, call: pick from yes (1) = active, no (0) = inactive

Use the examples below as a reference point.
Compound: CCNc1nc(Cl)nc(NC(C)(C)C)n1
Class name: no (0)
--
Compound: O=c1ssc(Cl)c1Cl
Class name: yes (1)
--
Compound: O=C(O)C1C(C(=O)O)C2(Cl)C(Cl)=C(Cl)C1(Cl)C2(Cl)Cl (stereo unspecified)
Class name: no (0)
--
Compound: COC(=O)C(F)(F)C(F)(F)OC(F)(C(F)(F)F)C(F)(F)OC(F)=C(F)F (stereo unspecified)
Class name: no (0)
--
Compound: O=C(O)C(F)(F)C(F)(F)C(=O)O
Class name: no (0)
--
Compound: CCOP(=S)(OCC)SCSc1ccc(Cl)cc1
Class name: yes (1)
--
Compound: CCCCC(CC)COC(=O)c1c(Br)c(Br)c(Br)c(Br)c1C(=O)OCC(CC)CCCC (stereo unspecified)
Class name: no (0)
--
Compound: CN(C)C(=O)Cl
Class name: no (0)
--
Compound: CC(Cl)(Cl)C(=O)O
Class name: no (0)
--
Compound: OCC(F)(F)OC(F)(F)C(F)(F)OC(F)(F)CO
Class name: no (0)

Assay result, entry O=P(Oc1ccccc1)(Oc1ccccc1)Oc1ccccc1 — outcome?
no (0)

====

# Assay notes: CCTE_Shafer_MEA_dev_per_network_spike_spike_number_mean: CCTE's Neural Network Formation Assay for Mean Number of Spikes in a Network Spike, Shafer Lab (AID 2284053)
Activity calls are given as the source filed them. How the source made its calls: active means hit-call score of the fitted dose curve at least 0.9, where 1 is the maximum; inactive means score below 0.9.
Form entry, call: pick from active, inactive

Use the examples below as a reference point.
Molecule: O=C(O)C1C(C(=O)O)C2(Cl)C(Cl)=C(Cl)C1(Cl)C2(Cl)Cl (stereo unspecified)
Class name: inactive
--
Molecule: O=C(O)C=CC(F)(C(F)(F)F)C(F)(F)F
Class name: inactive
--
Molecule: OCC(F)(F)OC(F)(F)C(F)(F)OC(F)(F)CO
Class name: inactive
--
Molecule: OCC(F)(F)OC(F)(F)C(F)(F)OC(F)(F)C(F)(F)OC(F)(F)CO
Class name: inactive
--
Molecule: C=CC(=O)OCC(F)(F)C(F)F
Class name: active
--
Molecule: O=C(O)C(F)(F)OC(F)(F)C(F)(F)OC(F)(F)F
Class name: inactive
--
Molecule: O=C(O)C(F)(F)OC(F)(F)C(F)(F)OC(F)(F)C(=O)O
Class name: inactive
--
Molecule: c1cc2c3c(cccc3c1)CC2
Class name: inactive

Assay result, entry ClC1=C(Cl)C2(Cl)C3C(Cl)C(Cl)CC3C1(Cl)C2(Cl)Cl (stereo unspecified) — outcome?
active

Assay result, entry CCC1(c2ccccc2)C(=O)N=C(O)NC1=O (stereo unspecified) — outcome?
inactive

Assay result, entry CCCCC(CC)COC(=O)c1c(Br)c(Br)c(Br)c(Br)c1C(=O)OCC(CC)CCCC (stereo unspecified) — outcome?
inactive
